Target: T1, 006 PSMA Fab (biotinylated (site not stated))
T1 construct: also called Anti-PSMA Fab
Test: clonal phage ELISA; biotinylated PSMA Fab on neutravidin plate, blocking buffer alone, anti-M13-HRP detection;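 further: crude clonal phage supernatants added without washing to wells preincubated with PSMA antigen or with blocking buffer alone, briefly incubated, then washed before bound phage detection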
Entries and their measured Phage binding ELISA signal, Anti-PSMA Fab follow.
# respond with the number and nothing more

{"columns": ["binder", "reading"],
 "data": [
  ["PDVHCVPRWMCDGL (tested as crude clonal phage supernatant) [Phage-3896]", 1.08],
  ["EWIMCTPPWMCHGF (tested as crude clonal phage supernatant) [Phage-3895]", 1.09],
  ["DLQMCLPKWMCVGF (tested as crude clonal phage supernatant) [Phage-3894]", 1.09],
  ["LTLKCAPAWMCNGF (tested as crude clonal phage supernatant) [Phage-3897]", 1.08],
  ["TEPACVPPWMCVGW (tested as crude clonal phage supernatant) [Phage-3884]", 1.12]
]}

Given item VVYTCVPSWMCTGL (tested as crude clonal phage supernatant) [Phage-3891] , the value recorded as its Phage binding ELISA signal, Anti-PSMA Fab is 1.1

Per the records, this binder ( DQHACRPEWMCVGF (tested as crude clonal phage supernatant) [Phage-3890] ) has Phage binding ELISA signal, Anti-PSMA Fab equal to 1.1

Value of Phage binding ELISA signal, Anti-PSMA Fab reported for the binder LVPRCLPEWMCTGF (tested as crude clonal phage supernatant) [Phage-3893] is 1.09

Noted for TEHQCVPAWMCGGF (tested as crude clonal phage supernatant) [Phage-3886] : its Phage binding ELISA signal, Anti-PSMA Fab reads 1.11
